Assay: soluble on expression in E. coli; label from the status in PepcDB or PDB records
quantity measured: soluble on expression in E. coli

MGKKELKRGLVVDREAQMIGVYLFEDGKTYRGIPRGKVLKKTKIYAGDYVWGEVVDPNTFAIEEVEERKNLLIRPKVANVDRVIIVETLKMPEFNNYLLDNMLVVYEYFKVEPVIVFNKIDLLNEEEKKELERWISIYRDAGYDVLKVSAKTGEGIDELVDYLEGFICILAGPSGVGKSSILSRLTGEELRTQEVSEKTERGRHTTTGVRLIPFGKGSFVGDTPGFSKVEATMFVKPREVRNYFREFLRYQCKYPDCTHTNEPGCAVKEAVKNGEISCERYKSYLKIIKVYLEEIKELCRED | soluble
MLPSKEELLALLSKECELYASIPDSEQQKKRNKKHFINGLMTACRVVGISFEELNTIIEQMPKKPIFKDLDEQLSVPTYVRNRVDIKL | not soluble
RDTVVTLLLDNSGSMRGRPISIAAICADVLARTLERCNVKVEILGFTTRAWKGGLAREAWLNEGRPQQPGRLNDLRHIIYKAADAPMRRTRQNLGLMMKEGLLKENIDGEALEWAHRRMLGRREQRKILMVISDGAPVDDSTLSVNPANYLEKHLRDVIAMVERRKQVELLAIGIGHDVTRYYQRAVTITDVEQLAGAMTEQLAALFDSDPRARARVMGMKRAS | not soluble
MLFELLYTSIAPAGLSDTELLSILEKARAKNQALDITGMLVYHNREIMQILEGEELKVRGLFQTIFQDERHTSVEVFYQGNIDHRAFSEWSMAFKLLDENTVKKMLIGYENFNPAKSPISMIASSPNRGKKTFLKLRDSL | soluble

---

Experiment: soluble on expression in E. coli; label from the status in PepcDB or PDB records
quantity measured: soluble on expression in E. coli

Consider the following illustrative entries.
MSLKVVITRPKERADVFASLLKKEGFEPIIFPTLEIVYNKDLDVNLDSYDWIAFTSPSGVIGLYNILTENERENVKNKKIAVIGEKTAKTFKKYFGRDPDIMPNEYTAESLLREIKKVSKEEEKFLIPTTPSTRDVLKNNLNADLLFVYKSAEPENLKEDIKKLKELIAKDKFILTFTSGLTAKNFFKYVDDEFAEIIKDNYIVAIGPITAKVIEKFGFKPLIPKVYTIEGMLEVIRTLKEREGHHHHHH | soluble
MQGLYIYGEVGRGKTMLMDLFFSCLPQKRKKRAHFNDFMADVHERINIYRQASKDGKTGQKTPILAVVEDLAQEAQVLCFDEFSVTDIADAMVLGRLISALFDKGIFFVATSNVAPDNLYYNGLEHHHHHH | not soluble
MLNIIRAGIYTSVQDSGRHGFRQSGLSHCGALDKPAFQTANLLVGNDANAPALEITLGQLVVEFENETWFALTGAGCEAQLDDQPVWTGWRLPVKAGQRLTLHRPLHGMRSYLAVAGGIAVPEVMGSYSTDLKSGIGGLEGRLLKDGDRLATGKPSRQFSGPQGVKQLLWGNRIRALPGPEYREFDRASQEAFWRSPWQLSPQSNRMGYRLQGQSLTRTTDRELLSHGLLPGVVQVPYNGQPIVLMNDAQTTGGYPRIACIIEADMYHLAQIPLGQPIHFVQCSLEEALNARRERQRYLEQLTWRLQHEHLEHHHHHH | not soluble
RAIPIKQSFLLKRSGNSLNKEWKKKYVTLSSNGFLLYHPSINDYIHSTHGKEMDLLRTTVKVPGKRPPRAISAFGPSASGSAGQAEEENFEFLIVSSTGQTWHFEAASFEERDAWVQAIESQILASLQ | soluble

List the reported soluble on expression in E. coli of each sequence below.
1. MNIVEEHREKCTQCGQCLSVCPRYDDLGLLDLLYGYLEGTSEIEPDSLLSCLTCGLCADACPEALGIKMLISPARQKWVSEHGLTDRQLEHHHHHH
2. AGKPDWDWQPAPKNEALIAAVSAAAQEGLNAAYQIREKQARTTKLREVYAAVQAAMAEQAAQAGQPAPDSVGVDNILFDLEARIVRSQILNGEPRIDGRDTRTVRP

not soluble
not soluble

---

Assay: soluble on expression in E. coli; label from the status in PepcDB or PDB records
quantity measured: soluble on expression in E. coli

MSSEFISKVDKEARRKAANILRDKFLNLVEQLKKGEPLVMEIPMRTLSNAIYDEKRKLLLLGEKKLRRNFLDLNEAKRFMQTVLMASIIYDALVSDEYPTIRDLYYRGKHSLLLKSIEGNKIVSEENTWDEQKESDSVIVDIEVFTSLLREEMLILSKEKGKVVGNLRIRSGNDVIDLSKTGHGAYAIEPTPDLIDFIDVDAEFVLVVEKDAVFQQLHRAGFWKQYKSILITSAGQPDRATRRFVRRLNEELKLPVYILTDADPYGWYIFSVFRIGSISLSYESERLATPDAKFLGVSMGDIFGNSRKKPYLSEAERKNYIIKAKDADIKRAEEIKNYEWFKTKAWQEEINTFLQRKAKLEIEAMASKGLKFLAFQYIPEKITNKDYIA | soluble
MSLEAKRPEQTRVVVGMSGGVDSSVTALLLKEQGYDVIGIFMKNWDDTDENGVCTATEDYQDVVQVCNQLGIAYYAVNFEKEYWDKVFTYFLEEYKAGRTPNPDVMCNKEIKFKAFLNHALTLGADYVATGHYAQVKNVDGQYQLIRGKDPNKDQTYFLNALSQQQLSRVMFPLGHLEKKEVRAIAERAGLATAKKKDSTGICFIGKRDFKEFLSSYLPAQPGEMQTLDGEVKGTHDGLMYYTLGQRQGLGIGGSGEPWFVIGKNLEKNILYVGQGFHHPGLYSEGLRAIKVNWILRRESDEPFECTAKFRYRQPDQKVTVYPQSDGAVEVLFAEPQRAITPGQAVVFYDGDVCLGGGTIDHVLKKKEDRESAEGHHHHHH | soluble

---

Experiment: soluble on expression in E. coli; label from the status in PepcDB or PDB records
quantity measured: soluble on expression in E. coli

MGSDKIHHHHHHMDKFLYISMSGAKQNMNELALRANNLANANTDGFKSDMAQARSMQAFGEGLPTRVFAMVETPSANFRSGPIKSTGRDLDVAIKGDGWFAVQAQDGSEAYTRSGSLSFDSTGLLHNDRGNPVMGDAGPIVLPLPIEKVTISQDGIISVRPQGATTEVVEEVGRLKLVNPGNAQMMRGEDGLFRLVSGDPAPADPSVSVESGAVEGSNVNSVDEMVSLIDLQRQFELQVKMMKTAEENDRASSSLMRIS | not soluble
ADEVAQTLAKVLTESSMPRENLLLSSFSHDVIRALYQHCEGYRLGVLSEFFTKKDGLLLDEVKAYSCNLNINWVRSRQIIKLQEAGYKVMCYTVNNPNKLKHLPQLDGIFSDHPKRFMQ | not soluble

---

Test: soluble on expression in E. coli; label from the status in PepcDB or PDB records
quantity measured: soluble on expression in E. coli

MSLNLGDLTNFVEKPLAAVSNIVNTPNSAGRYRPFYLRNLLDAVQGRNLNDAVKGKVVLITGGSSGIGAAAAKKIAEAGGTVVLVARTLENLENVANDIRAIRGNGGTAHVYPCDLSDMDAIAVMADQVLGDLGGVDILINNAGRSIRRSLELSYDRIHDYQRTMQLNYLGAVQLILKFIPGMRERHFGHIVNVSSVGVQTRAPRFGAYIASKAALDSLCDALQAETVHDNVRFTTVHMALVRTPMISPTTIYDKFPTLTPDQAAGVITDAIVHRPRRASSPFGQFAAVADAVNPAVMDRVRNRAFNMFGDSSAAKGSESQTDTSELDKRSETFVRATRGIHWEGHHHHHH | not soluble
MDNPTTPIAVVGPTASGKSALGVSLAHHLNGEVVNVDSMQLYKGMDIGTAKLTLEEREGIVHHLLDVWDISETASVARYQSQAIAVVEDIQRRGKTPILVGGSMLYVQSLVDDWQFPPTDPSVRAKWESKLNEVGVEALHALLAQKDPQAASIIELKDPRRTVRALEVIELTGKPFNASQPPKNAPPRWNTQIIGLGTNTEWLNPRIDLRTELMFEKGFVHEVENLVGKGLIADSTAGHAIGYAQVLQHFAGELSVDEMIEHTKIGTRRYVRRQRSWFKRDPRIHWIDASGDTFSMALSLLS | not soluble
MGSDKIHHHHHHMTNLVTLENVSVAFGQRRVLSDISLALTPGKILTLLGPNGAGKSTLVRVVLGLVAPTEGVIKRDARLRIGYVPQKLHLDATLPLTVSRFLRLRPGTRKDDILPALKRVQAGHLIDAPMQKLSGGETQRVLLARALLNRPQLLVLDEPTQGVDVNGQVALYDLINQLRHELDCAVLMVSHDLHLVMAKTDEVLCLNQHICCSGAPEVVSMHPEFISMFGPRGAEQLGIYRHHHNHRHDLQGRIVLRRGNSR | not soluble
KIQEWLGESDYSDFLSVVEAVHDSGPSFVLQAMKSLDKYDAMMCISVDSMVNRIQELIDDTMVMSTNNPWGVIPSEGGAGLIFCRRNTVETLKLKPLAQLGYIDTELNTSDRRGMYRLVQRASKKLTAFGEVYSDMTNLRAHSEDYGFALGAKAERFINPEQPLLINE | not soluble
MSLKFIEKMLPEESPIDLLINLSRRGEAAVVLLKDAIEDYFTGKFGEGHLNRVISLERESDEIKSKLKKMYLKMKYTYFEKDDFLYIVHKADEILDVVRDIVIMLDMNRVEDVPENIKELFAELVENVLDTIRETTEAIEQLRTLAESGFSPFEKEKEEREIFDVSMEEREVDTISRNLGKKLYSLKNSMNPVDLIFLNKVARLISKIADQGKDITKRINSILREGHHHHHH | soluble
MGHHHHHHSHMIQPRLLADAIVLFTSSQEEVTLAVTPLNFCLKSSNEESMDLSNAVHSEMFVGSDEFDFFQIGMDTEITFCFKELKGILTFSEATHAPISIYFDFPGKPLALSIDDMLVEANFILATLADEQSRASSPQSLCLSQKRKRSDLIEKKAGKNVTGQALECISKKAAPRRLYPKETLTNISALENCGSPAMKRVDGDVSEVSESSVSNTEEVPGSLCLRKFSCMFFGAVSSDQQEHFNHPFDSLARASGSEEDMNNVCCRKEFNGSDAEYFCII | not soluble

List the reported soluble on expression in E. coli of each sequence below.
1. SKKVIGKKRAHAEDDELDPMDPSSYSDAPRGGWVVGLKGVQPRAADTTASGPLFQQRPYPSPGAVLRRNAEVASSQKKKPNSQFTEITKRGDGSDGLGDAD
2. SAESSKLSATTVEAAPAMIKAKDVISPSEKEESDQTEITKVSVLKNLDEKEMIKEFADRLQRLEAKVDLLVTKADLLAIKADIQELLISAKGEKVPAMKTSAKASSESDDSYMDTSSEDESSSAEEPVNKPAASAAKPATKDSLFSAGFKPAAKDSLFSAGFKPDSLFSAGFEPAAKDSLFSAGFKPGSLFSAGFEPAAKDSLFSAGFKPDSLFSVGVKPAAKDSLFSVGVNGRSFSVTGFDASLPVDDIKSALSKYFSSFGEITRVFVPPSHGTGGSLGYAYIDLKEGAEKALELGRHDVGGWDLVVGKAEPIRSGSTWPFPGRCGNQGRCTFC

["soluble", "soluble"]
